Test: Solubility measurement (DMSO solution precipitation method)
Assay type: physicochemical
Conditions: aqueous buffer, kinetic from dmso stock, McIlvaine buffer pH 4.5, 24 h, read-out: solubility pH 4.5
The molecules listed here are annotated with their solubility at 24 h.

[[record]]
molecule = "C[C@H](Oc1nc(-c2onc3c2CCC[C@@]32CCCc3sc(N)c(C#N)c32)nc2c1n(C)c(=O)n2[C@@H]1CC2CCC1O2)[C@@H]1CCCN1C (stereo partly drawn) [I-18]"
quantity_name = "solubility at 24 h"
observed_measurement = "> 151 µg/mL"

[[record]]
molecule = "CO[C@@H]1C[C@@H]([C@H](C)Oc2nc(-c3onc4c3CCC[C@@]43CCCc4sc(N)c(C#N)c43)nc3c2n(C)c(=O)n3[C@@]23COC[C@@H]2C3)N(C)C1 [I-46]"
quantity_name = "solubility at 24 h"
observed_measurement = "> 150 µg/mL"

[[record]]
molecule = "CCn1c(=O)n([C@@H]2CCCOC2)c2nc(-c3onc4c3CCC[C@@]43CCCc4sc(N)c(C#N)c43)nc(O[C@@H](C)C34CCCN3CCC4)c21 [I-36]"
quantity_name = "solubility at 24 h"
observed_measurement = "135 µg/mL"

[[record]]
molecule = "C[C@H](Oc1nc(-c2noc3c2CCC[C@@]32CCCc3sc(N)c(C#N)c32)nc2c1CCO[C@]21CCOC1)[C@@H]1CCCN1C [II-9b]"
quantity_name = "solubility at 24 h"
observed_measurement = "> 141 µg/mL"

[[record]]
molecule = "C[C@H](Oc1nc(-c2onc3c2CCC[C@@]32CCCc3sc(N)c(C#N)c32)nc2c1n(C)c(=O)n2[C@@H]1CCOC1)[C@@H]1[C@@H](F)CCN1C [I-5]"
quantity_name = "solubility at 24 h"
observed_measurement = "> 150 µg/mL"

[[record]]
molecule = "C[C@H](Oc1nc(-c2onc3c2CCC[C@@]32CCCc3sc(N)c(C#N)c32)nc2c1n(C)c(=O)n2[C@@H]1CCOC1)[C@@H]1C[C@@H]2C[C@@H]2N1C [I-28]"
quantity_name = "solubility at 24 h"
observed_measurement = "> 166 µg/mL"

[[record]]
molecule = "CO[C@@H]1C[C@@H]([C@H](C)Oc2nc(-c3onc4c3CCC[C@@]43CCCc4sc(N)c(C#N)c43)nc3c2n(C)c(=O)n3[C@H]2CO[C@@H](C)C2)N(C)C1 [I-49]"
quantity_name = "solubility at 24 h"
observed_measurement = "> 145 µg/mL"

[[record]]
molecule = "CO[C@@H]1C[C@@H]([C@H](C)Oc2nc(-c3noc4c3CCC[C@@]43CCCc4sc(N)c(C#N)c43)nc3c2COC[C@]32CCOC2)N(C)C1 [II-11]"
quantity_name = "solubility at 24 h"
observed_measurement = "> 144 µg/mL"


Exercise: Need solubility at 24 h of C[C@H](Oc1nc(-c2onc3c2CCC[C@@]32CCCc3sc(N)c(C#N)c32)nc2c1n(C)c(=O)n2[C@@H]1CCOC1)[C@@H]1CCCN1C [I-20] , thanks.
Key: > 151 µg/mL

Exercise: So what does the record say about solubility at 24 h for C[C@H](Oc1nc(-c2onc3c2CCC[C@@]32CCCc3sc(N)c(C#N)c32)nc2c1n(C)c(=O)n2[C@H]1CO[C@@H](C)C1)[C@@H]1CC[C@H](C)N1C [I-50] ?
Key: 124 µg/mL

Exercise: Please give the measured solubility at 24 h for this molecule: C[C@H](Oc1nc(-c2onc3c2CCC[C@@]32CCCc3sc(N)c(C#N)c32)nc2c1COC[C@]21CCOC1)[C@@H]1CCCN1C [I-54]
Key: > 145 µg/mL

Exercise: Find the recorded solubility at 24 h belonging to C[C@H](Oc1nc(-c2noc3c2CCC[C@@]32CCCc3sc(N)c(C#N)c32)nc2c1n(C)c(=O)n2[C@H]1CO[C@@H](C)C1)[C@@H]1CCCN1C [II-5] and report it.
Key: > 142 µg/mL

###

Target: KRAS (G12D)::CRAF protein::protein interaction (Homo sapiens (Human), UniProt P01116, G12D)
Sequence (P01116 other isoform, or with tags, fused parts or gaps G12D): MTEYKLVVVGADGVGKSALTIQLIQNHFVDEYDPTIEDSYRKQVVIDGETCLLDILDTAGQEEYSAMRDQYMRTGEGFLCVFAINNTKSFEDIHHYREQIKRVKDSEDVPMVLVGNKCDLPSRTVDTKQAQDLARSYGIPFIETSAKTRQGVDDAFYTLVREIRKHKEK
Test: KRAS TR-FRET assay (KRAS G12D::CRAF, GTP)
quantity-name: pIC50
// field semantics: pIC50 = negative decimal log of concentration (mol/L)

A selection of reference data follows.
[[record]]
given_smiles = "C[C@H](Oc1nc(-c2noc3c2CCC[C@@]32CCCc3sc(N)c(C#N)c32)nc2c1CCO[C@]21CCOC1)[C@@H]1CCCN1C"
quantity_name = "pIC50"
observed_measurement = 6.93

[[record]]
given_smiles = "CO[C@H]1CCN(C)[C@@H]1[C@H](C)Oc1nc(-c2onc3c2CCC[C@@]32CCCc3sc(N)c(C#N)c32)nc2c1n(C)c(=O)n2[C@@H]1CCOC1"
quantity_name = "pIC50"
observed_measurement = 7.28

[[record]]
given_smiles = "COCCn1c(=O)n([C@@H]2CCOC2)c2nc(-c3onc4c3CCC[C@@]43CCCc4sc(N)c(C#N)c43)nc(O[C@@H](C)[C@@H]3CCCN3C)c21"
quantity_name = "pIC50"
observed_measurement = 6.84


Exercise: Which pIC50 reading was recorded for the molecule Cc1nc2c(O[C@@H](C)[C@@H]3CCCN3C)nc(-c3onc4c3CCC[C@@]43CCCc4sc(N)c(C#N)c43)nc2n1[C@@H]1CCOC1 ?
Key: 7.30

Exercise: Which measured pIC50 value corresponds to C[C@H](Oc1nc(-c2onc3c2CCC[C@@]32CCCc3sc(N)c(C#N)c32)nc2c1n(C)c(=O)n2[C@@H]1CCOC1)[C@@H]1CC[C@H](C)N1C ?
Key: 7.24

Exercise: State the recorded pIC50 for this entry: C[C@H](Oc1nc(-c2onc3c2CCC[C@@]32CCCc3sc(N)c(C#N)c32)nc2c1n(C)c(=O)n2C1CCOCC1)[C@@H]1CCCN1C
Key: 6.16

###

Molecular target: KRAS (G12D)::CRAF protein::protein interaction (Homo sapiens (Human), UniProt P01116, G12D)
Assay: KRAS TR-FRET assay (KRAS G12D::CRAF, GTP)
Assay type: binding
Item-by-item account of IC50
# output: bare number, implied unit nM

[[record]]
given_smiles = "C[C@H](Oc1nc(-c2noc3c2CCC[C@@]32CCCc3sc(N)c(C#N)c32)nc2c1n(C)c(=O)n2[C@@H]1CCOC1)[C@@H]1CCCN1C"
quantity_name = "IC50"
value_units = "nM"
observed_measurement = 32


Now examine the next entry.
Exercise: Find the recorded IC50 belonging to CO[C@H]1C[C@@H]([C@H](C)Oc2nc(-c3onc4c3CCC[C@@]43CCCc4sc(N)c(C#N)c43)nc3c2n(C)c(=O)n3[C@@H]2CCOC2)N(C)C1 and report it.
Key: 400

###

Tested on: Ba/F3 cells KRAS G12D
Assay: Ba/F3 proliferation assay (KRAS G12D)
Type: cell-based
Settings: Mus musculus, BaF3, 72 h, AlamarBlue viability
quantity-name: IC50
Returns: string containing the numeric result and its unit.

Recorded results for 2 molecules are shown here.
[[record]]
molecule = "C[C@H](Oc1nc(-c2noc3c2CCC[C@@]32CCCc3sc(N)c(C#N)c32)nc2c1COC[C@]21CCOC1)[C@@H]1CCCN1C [II-8]"
observed_measurement = "4 nM"

[[record]]
molecule = "C[C@H](Oc1nc(-c2onc3c2CCC[C@@]32CCCc3sc(N)c(C#N)c32)nc2c1n(C)c(=O)n2[C@@]12COC[C@@H]1C2)[C@@H]1CC[C@H](C)N1C [I-45]"
observed_measurement = "6 nM"


Here is the next item to consider.
Exercise: So what's the measured IC50 for this one? C[C@H](Oc1nc(-c2onc3c2CCC[C@@]32CCCc3sc(N)c(C#N)c32)nc2c1ncn2[C@@H]1CCOC1)[C@@H]1CCCN1C [I-38]
Key: 28 nM

###

Target: KRAS (G12D)::SOS1 protein-protein interaction (Homo sapiens (Human), UniProt P01116, G12D)
Assay: KRAS::SOS1 AlphaScreen binding assay (KRAS G12D)
Conditions: GDP
IC50 values by entry
Field format: number, assumed nM, no unit text.

Some compounds with recorded IC50:
[[record]]
given_smiles = "CO[C@H]1C[C@@H]([C@H](C)Oc2nc(-c3onc4c3CCC[C@@]43CCCc4sc(N)c(C#N)c43)nc3c2n(C)c(=O)n3[C@@H]2CCOC2)N(C)C1"
quantity_name = "IC50"
value_units = "nM"
observed_measurement = 2

[[record]]
given_smiles = "CO[C@@H]1C[C@@H]([C@H](C)Oc2nc(-c3noc4c3CCC[C@@]43CCCc4sc(N)c(C#N)c43)nc3c2CN(C2COC2)C[C@]32CCOC2)N(C)C1"
quantity_name = "IC50"
value_units = "nM"
observed_measurement = 1

[[record]]
given_smiles = "C[C@@H]1COC[C@H](n2c(=O)n(C)c3c(O[C@@H](C)[C@@H]4CCCN4C)nc(-c4onc5c4CCC[C@@]54CCCc5sc(N)c(C#N)c54)nc32)C1"
quantity_name = "IC50"
value_units = "nM"
observed_measurement = 1


Exercise: Sample C[C@H](Oc1nc(-c2onc3c2CCC[C@@]32CCCc3sc(N)c(C#N)c32)nc2c1n(C)c(=O)n2[C@@H]1CCOC1)C12CCCN1CCC2 — what was its IC50?
Key: 2

Exercise: So what's the measured IC50 for this one? Cc1nc2c(O[C@@H](C)[C@@H]3CCCN3C)nc(-c3onc4c3CCC[C@@]43CCCc4sc(N)c(C#N)c43)nc2n1[C@@H]1CCOC1
Key: 1

Exercise: Please look up its IC50: CCn1c(=O)n([C@@H]2CCCOC2)c2nc(-c3onc4c3CCC[C@@]43CCCc4sc(N)c(C#N)c43)nc(OCC3(CN4CCCC4)CC3)c21
Key: 7
